So I've got a bunch of compounds here, and I need their cytotoxicity at 70.5 h values.
test: Human HepG2 cell viability assay in 384 well format; type: toxicity, cell-based; design: dose 125 nL, time 70.5 hour; concentration not given beside the values; conditions: HepG2 cells, read-out: Inhibition
Answers are plain numbers, in %.

Respectfully, I request cytotoxicity at 70.5 h for each entry included below.
1. Cn1cnc2c1C(C(=O)N1CCCO1)N(C(=O)c1ccccc1)CC2 (stereo unspecified)
2. O=C(c1ccc(NCc2cccc(F)c2)cc1)N1CCC(CO)CC1
3. CC(=O)NC(C(=O)N(C)Cc1nnc2n1CCC2)C(C)C (stereo unspecified)
4. CCc1nc(C2CCCN2C(=O)CCc2cccs2)no1 (stereo unspecified)
5. CC(C)C(=O)N1CCC([C@@H]2C[C@H](C(F)F)n3ncnc3N2)CC1
6. CN1CC(c2n[nH]c(=O)n2-c2cccc(Cl)c2)CC1=O (stereo unspecified)
7. Cc1nc(C)n(CC2CCCN(CCCOc3ccc(F)cc3)C2)n1 (stereo unspecified)
8. O=C(c1cscn1)N1CCc2ncc(Cn3cncn3)n2CC1

Reply |
[-9.14, 2.87, 22.2, -5.42, 9.09, -12.8, -2.75, -6.09]
